- protocol-notes: Agonist activity at yeast aryl hydrocarbon receptor
- Type: functional, Saccharomyces cerevisiae
readout: EC50

| structure-as-smiles | readout | val |
| --- | --- | --- |
| CC(=O)O/N=C1/C(=C2/C(=O)Nc3cc(Br)ccc32)Nc2ccccc21 | EC50 | ≥ 100 nM |

* * *

- assayed-system: Calcium/calmodulin-dependent protein kinase type II subunit delta (Homo sapiens)
We label by threshold. Values of ΔTm strictly beneath 0.6 °C are 1. Values of 0.6 °C and up are -1.

| structure-as-smiles | assigned-class |
| --- | --- |
| COc1ccc(CNC(=O)Nc2ncc([N+](=O)[O-])s2)cc1 | 1 |
| O=C1c2ccccc2-c2n[nH]c3cccc1c23 | 1 |
| O=C(O)c1cc(NCc2cc(O)ccc2O)ccc1O | 1 |
| CC(C)c1cc(/C=C(\C#N)C(=O)NCCCc2ccccc2)cc(C(C)C)c1O | -1 |
| O=c1ccc2ccc(O)c(O)c2o1 | 1 |
| COc1ccc(S(=O)(=O)N(CCO)c2ccccc2CN(C)C/C=C/c2ccc(Cl)cc2)cc1 | 1 |
| O=c1c(O)c(-c2ccc(O)c(O)c2)oc2cc(O)cc(O)c12 | -1 |
| N#C/C(=C\c1ccc(O)c(O)c1)C(=O)Nc1ccccc1 | -1 |
| CCN(CC)CCNC(=O)c1c(C)[nH]c(/C=C2\C(=O)Nc3ccc(Cl)cc32)c1C | -1 |
| Nc1cccc(-c2cc3c(Oc4cccc(O)c4)ncnc3[nH]2)c1 | 1 |
